molecular target: hERG (Homo sapiens, UniProt Q12809); experiment: in vitro
Sequence (Q12809 whole entry): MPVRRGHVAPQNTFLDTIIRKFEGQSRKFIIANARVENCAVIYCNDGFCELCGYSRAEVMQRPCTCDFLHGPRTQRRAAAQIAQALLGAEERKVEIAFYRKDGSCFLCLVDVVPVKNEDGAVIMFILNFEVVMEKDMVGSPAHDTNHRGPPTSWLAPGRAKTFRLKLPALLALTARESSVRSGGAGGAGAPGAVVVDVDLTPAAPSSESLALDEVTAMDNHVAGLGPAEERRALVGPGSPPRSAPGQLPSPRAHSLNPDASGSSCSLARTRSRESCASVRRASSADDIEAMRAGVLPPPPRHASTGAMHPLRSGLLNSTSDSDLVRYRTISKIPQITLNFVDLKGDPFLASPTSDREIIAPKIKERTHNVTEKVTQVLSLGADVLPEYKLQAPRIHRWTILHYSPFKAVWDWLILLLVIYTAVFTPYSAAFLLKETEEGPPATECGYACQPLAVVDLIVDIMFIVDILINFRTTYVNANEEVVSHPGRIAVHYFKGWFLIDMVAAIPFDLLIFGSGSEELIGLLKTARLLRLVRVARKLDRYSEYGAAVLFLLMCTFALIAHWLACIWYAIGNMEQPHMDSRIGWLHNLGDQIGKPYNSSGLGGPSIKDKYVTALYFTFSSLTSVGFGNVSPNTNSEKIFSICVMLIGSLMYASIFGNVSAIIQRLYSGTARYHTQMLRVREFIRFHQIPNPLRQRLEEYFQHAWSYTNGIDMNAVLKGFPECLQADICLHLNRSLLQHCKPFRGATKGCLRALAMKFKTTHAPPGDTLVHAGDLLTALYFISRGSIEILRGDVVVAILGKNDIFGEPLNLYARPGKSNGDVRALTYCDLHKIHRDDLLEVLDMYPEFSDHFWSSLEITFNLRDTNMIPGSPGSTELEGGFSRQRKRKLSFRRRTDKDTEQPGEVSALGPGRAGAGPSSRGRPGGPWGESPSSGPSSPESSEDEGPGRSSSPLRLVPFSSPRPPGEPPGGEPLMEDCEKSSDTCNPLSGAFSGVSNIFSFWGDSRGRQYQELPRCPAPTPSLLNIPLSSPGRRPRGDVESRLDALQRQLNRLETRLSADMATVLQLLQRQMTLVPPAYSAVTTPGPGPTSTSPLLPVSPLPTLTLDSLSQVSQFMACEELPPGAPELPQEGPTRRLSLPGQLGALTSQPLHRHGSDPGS

Entry Smiles	inhibition at 0.3 mM (%)
OC[C@@H](O)[C@@H](O)[C@@H](O)CO	6.43

====

assay: 7-day repeat-dose oral toxicokinetics; format: in vivo, Bama minipig; conditions: female, Bama, minipig, plasma, po, 1 g/kg, 1.0 g/kg BID, Day 7, F

Compound	Tmax / h
OC[C@@H](O)[C@@H](O)[C@@H](O)CO [ribitol, (2R,3s,4S)-Pentane-1,2,3,4,5-pentol]	1.3

====

assay: 28-day repeat-dose oral toxicokinetics; format: in vivo, CD-1 mouse; settings: male, CD-1, mouse, plasma, po, 0.5 g/kg, 0.5 g/kg/dose BID, Day 28, Male

Compound	Cmax / µg/mL
OC[C@@H](O)[C@@H](O)[C@@H](O)CO [ribitol, (2R,3s,4S)-Pentane-1,2,3,4,5-pentol]	138
